target: CaNbp2; assay: SPOT peptide array binding signal intensity (averaged, normalized) (arbitrary units (background-subtracted, floor 0; scale differs between SH3 domains)); higher = stronger binding of the SH3 domain to the peptide
The reader will find reported SPOT peptide array binding signal intensity values listed item by item below.
I'd appreciate a reply containing only the number, no unit.

>  <Binder>
NPNRRAPRRPLSTQH

>  <Numeric Value>
4120

$$$$
>  <Binder>
FFRRSELYLPNSSKA

>  <Numeric Value>
89

$$$$
>  <Binder>
RRRIAYPFYPFKKLG

>  <Numeric Value>
565

$$$$
>  <Binder>
RSKRLFPVRPMATAH

>  <Numeric Value>
366

$$$$
>  <Binder>
PPIPNAPLSPAPAVP

>  <Numeric Value>
15.5

$$$$

Lookup: Recall and state the measured SPOT peptide array binding signal intensity for MKRSRPSRSIPYTTP .
Found: 421

Lookup: // Input: AVPPPPPPPPLPESL . Output its SPOT peptide array binding signal intensity only.
Found: 23.5

Lookup: Give the measured SPOT peptide array binding signal intensity for QQNRPLPQLPNRNNR
Found: 100

Lookup: Read off the recorded SPOT peptide array binding signal intensity for VSKLRSPNTPRRLRK
Found: 166

Lookup: Give reported SPOT peptide array binding signal intensity value for MFLISPPASPPPEFD
Found: 31

Lookup: Indicate its recorded SPOT peptide array binding signal intensity; the binder in question is KWVRRPKLMTPLTFS
Found: 757

Lookup: Entry YRRKSIPFAPHQITA needs its SPOT peptide array binding signal intensity filled in; supply it.
Found: 161

Lookup: Could you please provide reported SPOT peptide array binding signal intensity for FIRKRAPTPPAPSRS ? Thanks!
Found: 415

Lookup: Name the recorded SPOT peptide array binding signal intensity of the item RKNRAPPQRPRFNRE in your answer.
Found: 1020

Lookup: Look up and state reported SPOT peptide array binding signal intensity for LPPPPPPPPPPPLPQ
Found: 10

Lookup: Please give the documented SPOT peptide array binding signal intensity of NSVPIMPTLPPRPYI
Found: 400
